Biological target: human Eg5 (monomeric construct Eg52-386) (Homo sapiens, UniProt P52732)
Construct: the basal ATPase activity was measured using 1-4 μM of Eg5 (2-386) for the above test; made in house
Sequence (P52732 2-386): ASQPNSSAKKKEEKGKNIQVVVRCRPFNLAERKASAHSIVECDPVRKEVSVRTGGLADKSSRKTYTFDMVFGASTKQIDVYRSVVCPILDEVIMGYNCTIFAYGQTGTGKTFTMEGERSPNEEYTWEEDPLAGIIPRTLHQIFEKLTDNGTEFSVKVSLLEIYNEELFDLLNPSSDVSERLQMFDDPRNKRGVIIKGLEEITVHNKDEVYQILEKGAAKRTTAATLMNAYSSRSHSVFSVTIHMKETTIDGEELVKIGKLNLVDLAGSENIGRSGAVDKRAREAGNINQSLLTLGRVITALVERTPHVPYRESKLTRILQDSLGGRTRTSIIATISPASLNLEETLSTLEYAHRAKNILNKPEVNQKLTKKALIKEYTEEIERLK
Experiment: In vitro inhibition of the ATPase activity of kinesin Eg5 (pyruvate kinase/lactate dehydrogenase coupled assay)
Assay type: biochemical
Conditions: in vitro ATPase activity of Eg5; inhibitor concentration not given
Outcome: Satisfied for % inhibition of at least 60%; Not satisfied for anything lower.

INSERT INTO measurements (compound, tested_system, group_label) VALUES
  ('CCOC(=O)C1=C(C)NC(=S)NC1c1cccc(OC)c1 (stereo not drawn)', 'human Eg5 (monomeric construct Eg52-386) (Homo sapiens, UniProt P52732)', 'Not satisfied'),
  ('CC1=C(C(=O)c2ccccc2)C(c2cccc(O)c2)NC(=O)N1C (stereo not drawn)', 'human Eg5 (monomeric construct Eg52-386) (Homo sapiens, UniProt P52732)', 'Satisfied'),
  ('CC1=C(C(=O)OCc2ccccc2)C(c2ccccc2)NC(=S)N1 (stereo not drawn)', 'human Eg5 (monomeric construct Eg52-386) (Homo sapiens, UniProt P52732)', 'Not satisfied'),
  ('CCOC(=O)C1=C(C)NC(=S)NC1c1ccc(O)cc1 (stereo not drawn)', 'human Eg5 (monomeric construct Eg52-386) (Homo sapiens, UniProt P52732)', 'Not satisfied'),
  ('COc1ccc(C2NC(=S)NC(C)=C2C(=O)OCc2ccccc2)cc1 (stereo not drawn)', 'human Eg5 (monomeric construct Eg52-386) (Homo sapiens, UniProt P52732)', 'Not satisfied'),
  ('CC1=C(C(=O)c2ccccc2)C(c2ccc(O)cc2)NC(=S)N1C (stereo not drawn)', 'human Eg5 (monomeric construct Eg52-386) (Homo sapiens, UniProt P52732)', 'Satisfied'),
  ('CC1=C(C(=O)c2ccccc2)C(c2ccccc2)NC(=O)N1C (stereo not drawn)', 'human Eg5 (monomeric construct Eg52-386) (Homo sapiens, UniProt P52732)', 'Satisfied'),
  ('CC(=O)C1=C(C)N(C)C(=S)NC1c1ccccc1 (stereo not drawn)', 'human Eg5 (monomeric construct Eg52-386) (Homo sapiens, UniProt P52732)', 'Not satisfied'),
  ('CCOC(=O)C1=C(C)NC(=S)NC1c1ccccc1 (stereo not drawn)', 'human Eg5 (monomeric construct Eg52-386) (Homo sapiens, UniProt P52732)', 'Satisfied'),
  ('CC1=C(C(=O)c2cccc(F)c2)C(c2cccc(O)c2)NC(=S)N1 (stereo not drawn)', 'human Eg5 (monomeric construct Eg52-386) (Homo sapiens, UniProt P52732)', 'Satisfied'),
  ('CC1=C(C(=O)OCc2ccccc2)C(c2cccc(O)c2)NC(=S)N1C (stereo not drawn)', 'human Eg5 (monomeric construct Eg52-386) (Homo sapiens, UniProt P52732)', 'Not satisfied'),
  ('CC(=O)C1=C(C)NC(=S)NC1c1ccc(O)cc1 (stereo not drawn)', 'human Eg5 (monomeric construct Eg52-386) (Homo sapiens, UniProt P52732)', 'Satisfied'),
  ('CC(=O)C1=C(C)N(C)C(=S)NC1c1cccc(O)c1 (stereo not drawn)', 'human Eg5 (monomeric construct Eg52-386) (Homo sapiens, UniProt P52732)', 'Not satisfied'),
  ('CCOC(=O)C1=C(C(C)C)NC(=S)NC1c1cccc(O)c1 (stereo not drawn)', 'human Eg5 (monomeric construct Eg52-386) (Homo sapiens, UniProt P52732)', 'Satisfied'),
  ('C=CCN1C(=S)NC(c2cccc(O)c2)C(C(=O)c2ccccc2)=C1C(F)(F)F (stereo not drawn)', 'human Eg5 (monomeric construct Eg52-386) (Homo sapiens, UniProt P52732)', 'Satisfied');
